test system: A. aerogenes; experiment: conventional agar dilution test, A. aerogenes; assay type: cell-based; details: Aa = A. aerogenes, complete growth inhibition
Counter-ions that a name gives are not always drawn.
parameter_measured: Minimum Inhibitory Concentration
Field note: include the unit after the figure.

Cl/C=C\C[N+]12CN3CN(CN(C3)C1)C2 [Ig]	250 ppm

Input line: # query: Minimum Inhibitory Concentration | item Cl/C=C\C[N+]12CN3CN(CN(C3)C1)C2 [Ie] | system: A. aerogenes
Output line: 250 ppm

Input line: # query: Minimum Inhibitory Concentration | item Cl/C=C\C[N+]12CN3CN(CN(C3)C1)C2 [Ib] | system: A. aerogenes
Output line: 75 ppm

Input line: # query: Minimum Inhibitory Concentration | item Cl/C=C\C[N+]12CN3CN(CN(C3)C1)C2 [Example 1, Mono-benzoate Salt of Cis] | system: A. aerogenes
Output line: 100 ppm

Input line: # query: Minimum Inhibitory Concentration | item Cl/C=C\C[N+]12CN3CN(CN(C3)C1)C2 [Example 2, p-Toluene Sulfonate Mono-Salt of Cis] | system: A. aerogenes
Output line: 100 ppm
